Attribution: ChEMBL document CHEMBL4138137

- target.of.assay: Eukaryotic initiation factor 4A-III (Homo sapiens)
- Sequence (P38919 whole entry): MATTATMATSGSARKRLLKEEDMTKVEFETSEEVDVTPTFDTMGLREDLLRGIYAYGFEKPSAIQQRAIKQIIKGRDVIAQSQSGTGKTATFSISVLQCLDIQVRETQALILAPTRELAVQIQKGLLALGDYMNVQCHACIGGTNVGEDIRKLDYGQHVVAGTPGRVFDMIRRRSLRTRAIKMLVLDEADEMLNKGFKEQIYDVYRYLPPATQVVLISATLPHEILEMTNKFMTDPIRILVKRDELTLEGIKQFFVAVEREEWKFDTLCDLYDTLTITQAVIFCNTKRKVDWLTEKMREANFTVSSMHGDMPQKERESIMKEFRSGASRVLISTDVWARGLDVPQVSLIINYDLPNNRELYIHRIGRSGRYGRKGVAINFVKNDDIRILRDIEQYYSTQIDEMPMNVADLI
- procedure.details: Inhibition of MLN51-induced full length recombinant human N-terminal His6/SUMO-tagged eIF4A3 RNA dependent ATPase activity expressed in Escherichia coli BL21(DE3) using single stranded poly(U) RNA as substrate after 30 mins by ADP-Glo luminescence assay
pIC50: −log10 of the molar value.
property: pIC50

> print(dat)
                                   compound  obs.value
1  N#Cc1cccc(-c2cc(C(=O)N3CCN(C(=O)c4ccc(Cl)cc4)C(c4ccc(Cl)cc4)C3)c[nH]c2=O)c1 (configuration not stated)       6.72
2  O=C(c1c[nH]c(=O)c(-c2ccccc2Cl)c1)N1CCN(C(=O)c2ccc(Cl)cc2)C(c2ccc(Cl)cc2)C1 (configuration not stated)       6.38
3  O=C(c1ccnc2ccccc12)N1CCN(C(=O)c2ccc(Br)cc2)[C@@H](c2ccc(Cl)cc2)C1       5.57
4  N#Cc1cccc(-c2cc(C(=O)N3CCN(C(=O)c4ccc(Br)cn4)[C@@H](c4ccc(Cl)cc4)C3)c[nH]c2=O)c1       7.30
5  O=C(c1cnn2cc(Br)ccc12)N1CCN(C(=O)c2ccc(Br)cn2)[C@@H](c2ccc(Cl)cc2)C1       6.55
6  O=C(c1c[nH]c(=O)c(-c2cccc(Cl)c2)c1)N1CCN(C(=O)c2ccc(Cl)cc2)C(c2ccc(Cl)cc2)C1 (configuration not stated)       6.54
7  O=C(c1cncc2ccccc12)N1CCN(C(=O)c2ccc(Br)cc2)[C@@H](c2ccc(Cl)cc2)C1       5.80

----------
- procedure.details: Solubility of the compound at pH 6.8
- Format: physicochemical
- settings: buffer
Each entry below carries its recorded solubility.
property: solubility

> print(dat)
                                 smiles.str   obs.value
1  O=C(c1ccnc2ccccc12)N1CCN(C(=O)c2ccc(Br)cc2)[C@@H](c2ccc(Cl)cc2)C1   3.2 µg/mL
2  O=C(c1cnn2cc(Br)ccc12)N1CCN(C(=O)c2ccc(Br)cc2)[C@@H](c2ccc(Cl)cc2)C1  0.46 µg/mL
3  O=C(c1cnn2cc(Br)ccc12)N1CCN(C(=O)c2ccc(Br)cn2)[C@@H](c2ccc(Cl)cc2)C1   3.8 µg/mL
4  O=C(c1cncc2ccccc12)N1CCN(C(=O)c2ccc(Br)cc2)[C@@H](c2ccc(Cl)cc2)C1   5.1 µg/mL

----------
- target.of.assay: UniProt:Q14240
- Sequence (Q14240 whole entry): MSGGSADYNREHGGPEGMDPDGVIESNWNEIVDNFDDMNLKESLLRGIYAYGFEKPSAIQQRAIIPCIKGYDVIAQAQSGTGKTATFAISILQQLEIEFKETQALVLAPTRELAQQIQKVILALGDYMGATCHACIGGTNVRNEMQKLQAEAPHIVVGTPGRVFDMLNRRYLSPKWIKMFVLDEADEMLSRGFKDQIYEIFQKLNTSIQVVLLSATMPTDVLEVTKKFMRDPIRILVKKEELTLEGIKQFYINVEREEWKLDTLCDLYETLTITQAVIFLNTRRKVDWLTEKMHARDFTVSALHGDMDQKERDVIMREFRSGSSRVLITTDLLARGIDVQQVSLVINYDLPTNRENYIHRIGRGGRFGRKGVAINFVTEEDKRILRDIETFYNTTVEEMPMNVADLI
- procedure.details: Inhibition of eIF4G-induced full length recombinant human N-terminal His6/SUMO-tagged eIF4A2 RNA dependent ATPase activity using single stranded poly(U) RNA as substrate after 40 mins by ADP-Glo luminescence assay
property: IC50

> print(dat)
                                 smiles.str  target.of.assay  property  obs.value
1  Cn1cc(C(=O)N2CCN(C(=O)c3ccc(Br)cn3)[C@@H](c3ccc(Cl)cc3)C2)cc(-c2cccc(C#N)c2)c1=O   UniProt:Q14240      IC50   > 100 µM

----------
- procedure.details: AUC (0 to 8 hrs) in ICR mouse at 1 mg/kg, po administered as cassette dose
- Format: ADME, organism-based
- Parameters: dose 1 mg/kg, time < 8 hr, route oral
- settings: in vivo
property: log10(AUC(0-t) at 8 h) (log10 of the value in ng·h/mL)

> print(dat)
                                 smiles.str  obs.value
1  O=C(c1cncc2ccccc12)N1CCN(C(=O)c2ccc(Br)cc2)[C@@H](c2ccc(Cl)cc2)C1       0.18
2  O=C(c1c[nH]c(=O)c2ccccc12)N1CCN(C(=O)c2ccc(Br)cc2)[C@@H](c2ccc(Cl)cc2)C1       1.99
3  O=C(c1cnn2cc(Br)ccc12)N1CCN(C(=O)c2ccc(Br)cn2)[C@@H](c2ccc(Cl)cc2)C1       1.75
4  O=C(c1cnn2cc(Br)ccc12)N1CCN(C(=O)c2ccc(Br)cc2)[C@@H](c2ccc(Cl)cc2)C1       0.95
5  Cn1cc(C(=O)N2CCN(C(=O)c3ccc(Br)cn3)[C@@H](c3ccc(Cl)cc3)C2)cc(-c2cccc(C#N)c2)c1=O       2.17
6  O=C(c1ccnc2ccccc12)N1CCN(C(=O)c2ccc(Br)cc2)[C@@H](c2ccc(Cl)cc2)C1       2.11
